Each entry below lists one item and its recorded IC50 value.
- System: MCF-7
- Experiment Notes: MTT anti-proliferative assay, MCF-7
- Run Conditions: Homo sapiens, MCF7, 48 h, read-out: IC50 MCF-7
Numeric answer plus unit only.

Known IC50 results, listed for orientation:
| Compound | Assayed Target | IC50 |
| --- | --- | --- |
| CC(O)CNC(=O)CCCCCNC(=O)c1ccc(I)cc1 (stereo not shown) | MCF-7 | 63.2 µM |
| CC(O)CNC(=O)CCCCCNC(=O)c1ccc([N+](=O)[O-])cc1 (stereo not shown) | MCF-7 | 58.7 µM |
| CC(O)CNC(=O)CCCCCNC(=O)c1ccc2c(c1)OCO2 (stereo not shown) | MCF-7 | 44.6 µM |
| O=C(CCCCCNC(=O)c1ccc2c(c1)OCO2)NCCO | MCF-7 | 93.2 µM |
| O=C(CCCCCNC(=O)c1ccc(I)cc1)NCCO | MCF-7 | 64.5 µM |

query: Could you share which IC50 value was measured for Cc1ccc(C(=O)NCCCCCC(=O)NCC(C)O)cc1 (stereo not shown) ?
result: 44.8 µM

query: Could you share which IC50 value was measured for Cc1cc(C)cc(C(=O)NCCCCCC(=O)NCCO)c1 ?
result: 83.6 µM
